Sourced from PubChem BioAssay AID504734

# subject_of_test: Toll-like receptor 9 (Homo sapiens) + Myeloid differentiation primary response protein MyD88 (Homo sapiens) (UniProt Q9NR96+Q99836)
# Sequence (Q99836 whole entry, looked up): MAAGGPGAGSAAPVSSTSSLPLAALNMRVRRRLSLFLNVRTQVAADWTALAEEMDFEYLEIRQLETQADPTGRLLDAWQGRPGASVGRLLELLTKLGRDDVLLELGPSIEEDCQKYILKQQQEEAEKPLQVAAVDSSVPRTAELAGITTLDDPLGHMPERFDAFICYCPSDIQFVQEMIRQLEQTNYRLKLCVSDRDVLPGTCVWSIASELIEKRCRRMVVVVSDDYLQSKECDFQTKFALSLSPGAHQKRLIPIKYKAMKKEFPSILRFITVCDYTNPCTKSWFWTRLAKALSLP
# Sequence (Q9NR96 whole entry, looked up): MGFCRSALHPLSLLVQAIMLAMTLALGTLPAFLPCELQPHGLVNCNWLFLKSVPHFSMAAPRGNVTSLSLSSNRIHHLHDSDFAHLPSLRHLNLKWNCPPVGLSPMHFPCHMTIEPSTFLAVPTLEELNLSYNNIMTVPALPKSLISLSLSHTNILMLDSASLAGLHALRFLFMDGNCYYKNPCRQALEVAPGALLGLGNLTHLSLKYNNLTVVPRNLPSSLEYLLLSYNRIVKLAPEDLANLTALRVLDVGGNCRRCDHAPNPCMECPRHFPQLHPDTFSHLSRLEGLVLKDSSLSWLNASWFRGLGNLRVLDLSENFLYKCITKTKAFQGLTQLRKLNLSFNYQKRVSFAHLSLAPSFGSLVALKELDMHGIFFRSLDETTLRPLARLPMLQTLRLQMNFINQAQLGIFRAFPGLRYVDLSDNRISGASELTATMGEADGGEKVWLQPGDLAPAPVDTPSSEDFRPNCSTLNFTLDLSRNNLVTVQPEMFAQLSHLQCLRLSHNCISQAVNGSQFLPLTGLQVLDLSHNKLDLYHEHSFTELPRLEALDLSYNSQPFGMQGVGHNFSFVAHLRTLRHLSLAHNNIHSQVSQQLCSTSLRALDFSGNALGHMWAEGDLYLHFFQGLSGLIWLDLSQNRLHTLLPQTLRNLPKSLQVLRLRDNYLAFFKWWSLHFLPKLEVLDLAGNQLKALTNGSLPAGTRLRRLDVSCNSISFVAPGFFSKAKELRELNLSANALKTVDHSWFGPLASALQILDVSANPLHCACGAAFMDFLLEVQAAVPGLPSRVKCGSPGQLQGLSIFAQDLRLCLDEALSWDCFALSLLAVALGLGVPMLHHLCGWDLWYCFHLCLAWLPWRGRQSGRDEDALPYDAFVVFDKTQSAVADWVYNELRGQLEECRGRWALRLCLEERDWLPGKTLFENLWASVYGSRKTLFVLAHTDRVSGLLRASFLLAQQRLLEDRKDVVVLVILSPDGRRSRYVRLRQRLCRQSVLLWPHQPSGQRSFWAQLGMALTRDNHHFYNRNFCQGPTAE
# protocol_text: disruptors of TLR9 binding to MyD88 – cell-based, CHO, BLA complementation, fluorescence, primary screen (AID 504734);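 further: 0% = DMSO only wells and 100% = clavulanate BLA inhibitor control wells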
# applied_conditions: CHO BLA complementation TLR9-MyD88, CCF4 FRET ratio; at 4.98 µM
Hit rate of the full screen: of about 340,000 compounds, about 730 (0.21%) were called active.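 How the source made its calls: active means inhibition above the mean over all tested compounds plus 3 SD (cut at about 21% in these data); inactive means the rest.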 This is one part of a sample in which actives are shown more often than they occur.
Assign a class; possible classes are active, inactive

COc1cc(C(=O)OCCCN2CCOCC2)cc(OC)c1OC	inactive
NC(=O)CSc1nnc(-c2cccc(S(=O)(=O)N3CCOCC3)c2)o1	inactive
COc1ccc(-c2c(C#N)cnc(C)c2C)c(O)c1OC	inactive

Problem: Just curious, what result did CN1CCN(c2ccncc2S(=O)(=O)N2CCCC2)CC1 get here?
Result: inactive

Problem: Just curious, what result did Cc1cc2oc(=O)cc(CN3CCN(Cc4ccccc4)CC3)c2cc1C get here?
Result: inactive

Problem: Just curious, what result did O=C(C[C@H]1C[C@H]2c3cc(NS(=O)(=O)c4ccc(F)cc4)ccc3O[C@H]2[C@H](CO)O1)NCc1cc(F)ccc1F get here?
Result: inactive

Problem: Just curious, what result did CCn1c(SCC(=O)N2CCCC2=O)nc2ccccc21 get here?
Result: inactive

Problem: Just curious, what result did OCCNc1nc(Nc2ccc(Cl)c(Cl)c2)nc2ccccc12 get here?
Result: inactive

Problem: Just curious, what result did Nc1nnc(SCC(=O)Nc2ccc3nc(SCC(=O)Nc4ccccc4)sc3c2)s1 get here?
Result: inactive

Problem: Just curious, what result did COc1cccc2sc3cc(NCC[C@@H]4CCCN4C)ccc3c(=O)c12 get here?
Result: inactive

Problem: Just curious, what result did CCN(CC)CCCC(C)n1c2nc(=O)[nH]c(=O)c-2nc2cc(Cl)ccc21 (stereo unspecified) get here?
Result: active

====

# subject_of_test: Toll-like receptor 9 (Homo sapiens) + Myeloid differentiation primary response protein MyD88 (Homo sapiens) (UniProt Q9NR96+Q99836)
# protocol_text: disruptors of TLR9 binding to MyD88 – cell-based, CHO, BLA complementation, fluorescence, primary screen (AID 504734);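 further: 0% = DMSO only wells and 100% = clavulanate BLA inhibitor control wells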
# applied_conditions: CHO BLA complementation TLR9-MyD88, CCF4 FRET ratio; at 4.98 µM
The campaign covered roughly 340,000 compounds. About 730 (0.21%) were called active.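 Rule for the calls: active = inhibition above the mean over all tested compounds plus 3 SD (cut at about 21% in these data); inactive = the rest.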 What follows is part of a selection rich in actives, with near analogues and random picks from the rest.
Assign a class; possible classes are true (1) = active, false (0) = inactive

CCN(CC)C(=O)c1sc2nc(-c3ccccc3)ccc2c1N	false (0)

Problem: Just curious, what result did C#Cc1cc(N2CCN(C(=O)c3ccoc3)CC2)n2nc(-c3cccc(Cl)c3)cc2n1 get here?
Result: false (0)

Problem: Just curious, what result did O=C(COC(=O)c1cncc(Br)c1)Nc1ccc(S(=O)(=O)N2CCOCC2)cc1 get here?
Result: false (0)

Problem: Just curious, what result did Nc1cccc(-c2cc(-c3ccccc3)nc(-c3cccc(N)c3)n2)c1 get here?
Result: false (0)

Problem: Just curious, what result did O=C(CNC(=O)c1ccc(-c2ccccc2)cc1)OCc1ccc(Cl)cc1 get here?
Result: false (0)

Problem: Just curious, what result did COCOCCn1cc(CN2CCS(=O)(=O)N(Cc3ccc(-c4ccc(OC)cc4)cc3)C(CC(C)C)C2=O)nn1 (stereo unspecified) get here?
Result: false (0)

Problem: Just curious, what result did Cc1ccc(C(=O)N2CCCc3ccccc32)c(Cl)c1 get here?
Result: false (0)

Problem: Just curious, what result did Nc1ccccc1-c1nc2ccncc2[nH]1 get here?
Result: false (0)
